The reported numbers originate from patent US8129371B2.

Record form. Attribute: IC50. Fill in for each entry.
- measured.on: PI3K (Homo sapiens, UniProt P48736)
- Construct: PI3 Kinase γ IC50; other: PI3 Kinase γ; other: PI3 Kinase γ isoform, fluorescence polarization
- Sequence (P48736 whole entry, canonical isoform): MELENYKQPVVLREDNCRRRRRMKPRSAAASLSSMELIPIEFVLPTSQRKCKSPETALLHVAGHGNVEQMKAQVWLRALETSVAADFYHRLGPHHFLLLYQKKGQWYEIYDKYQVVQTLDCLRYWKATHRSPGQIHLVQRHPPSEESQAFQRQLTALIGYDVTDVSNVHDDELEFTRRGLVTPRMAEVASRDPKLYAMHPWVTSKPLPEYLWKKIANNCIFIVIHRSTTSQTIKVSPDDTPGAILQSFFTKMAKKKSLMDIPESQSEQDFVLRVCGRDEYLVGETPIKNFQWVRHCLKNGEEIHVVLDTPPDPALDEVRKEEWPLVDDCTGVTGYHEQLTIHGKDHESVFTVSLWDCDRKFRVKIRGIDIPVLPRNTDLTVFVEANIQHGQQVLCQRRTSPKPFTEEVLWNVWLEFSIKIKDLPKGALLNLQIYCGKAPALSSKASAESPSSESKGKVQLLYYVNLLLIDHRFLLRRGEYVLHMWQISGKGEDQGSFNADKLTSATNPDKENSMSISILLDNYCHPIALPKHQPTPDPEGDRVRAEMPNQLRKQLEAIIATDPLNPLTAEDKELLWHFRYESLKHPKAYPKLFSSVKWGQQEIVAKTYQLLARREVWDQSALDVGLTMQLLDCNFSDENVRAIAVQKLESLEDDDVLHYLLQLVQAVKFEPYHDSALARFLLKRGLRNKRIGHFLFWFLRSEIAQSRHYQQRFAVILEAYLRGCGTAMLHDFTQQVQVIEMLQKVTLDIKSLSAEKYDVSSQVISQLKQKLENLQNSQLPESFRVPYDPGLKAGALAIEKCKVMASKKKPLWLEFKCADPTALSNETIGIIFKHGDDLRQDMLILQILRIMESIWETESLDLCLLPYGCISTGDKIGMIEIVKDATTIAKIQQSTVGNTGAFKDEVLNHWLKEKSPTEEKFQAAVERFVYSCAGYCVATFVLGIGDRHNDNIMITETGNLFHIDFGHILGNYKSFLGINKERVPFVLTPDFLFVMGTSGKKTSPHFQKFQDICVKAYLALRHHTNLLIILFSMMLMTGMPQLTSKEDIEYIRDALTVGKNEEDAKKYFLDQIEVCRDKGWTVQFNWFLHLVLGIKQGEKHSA
- test.summary: Fluorescence polarization assay for PI3K
- Format: biochemical
- measurement.setup: PI3 Kinase γ isoform, fluorescence polarization; read-out: PI3 Kinase γ IC50
Your answer should be a plain number; it is taken to be in µM.

# input For the compound CN1CCN(c2ccc(NC(=O)Nc3ccc(-c4nc(N5CC6CCC(C5)O6)c5cnn(C6CCC7(CCCO7)CC6)c5n4)cc3)cc2)CC1 (single isomer, unassigned) , what IC50 is on record?
# output 1.45

# input For the compound CN1CCN(C2CCC(n3ncc4c(N5CC6CCC(C5)O6)nc(-c5ccc(NC(=O)OCCO)cc5)nc43)CC2)CC1 (stereo not shown) , what IC50 is on record?
# output 11.9

# input For the compound `COC(=O)N1CCC(n2ncc3c(N4C5CCC4COC5)nc(-c4ccc(NC(=O)OCCO)cc4)nc32)CC1` , what IC50 is on record?
# output 6.8

# input For the compound `COC(=O)N1CCC(n2ncc3c(N4C5CCC4COC5)nc(-c4ccc(NC(=O)Nc5cccnc5)cc4)nc32)CC1` , what IC50 is on record?
# output 4.07

# input For the compound `CS(=O)(=O)N1CCN(Cc2cc3nc(-c4ccc(NC(=O)Nc5cccnc5)cc4)nc(N4CC5CCC(C4)O5)c3s2)CC1` , what IC50 is on record?
# output 0.286

# input For the compound CN1CCN(c2ccc(NC(=O)Nc3ccc(-c4nc(N5CC6CCC(C5)O6)c5cnn([C@H]6CC[C@H](O)CC6)c5n4)cc3)cc2)CC1 (relative stereo) , what IC50 is on record?
# output 1.14

# input For the compound CNC(=O)Nc1ccc(-c2nc(N3CC4CCC(C3)O4)c3cnn([C@H]4CC[C@H](OC)CC4)c3n2)cc1 (relative stereo) , what IC50 is on record?
# output 7.44

# input For the compound COC1CCC(n2ncc3c(N4CC5CCC(C4)O5)nc(-c4ccc(NC(=O)Nc5cccnc5)cc4)nc32)CC1 (stereo not shown) , what IC50 is on record?
# output 2.17

# input For the compound O=C(Nc1ccc(-c2nc(N3CC4CCC(C3)O4)c3cnn(C4CCC(N5CCCC5)CC4)c3n2)cc1)Nc1cccnc1 (stereo not shown) , what IC50 is on record?
# output 2.76

# input For the compound `O=C(Nc1ccc(CCO)cc1)Nc1ccc(-c2nc(N3C[C@@H]4C[C@H]3CO4)c3cnn(CC(F)(F)F)c3n2)cc1` , what IC50 is on record?
# output 3.58

# input For the compound CN1CCN(C2CCC(n3ncc4c(N5CC6CCC(C5)O6)nc(-c5ccc(NC(=O)Nc6ccccc6)cc5)nc43)CC2)CC1 (stereo not shown) , what IC50 is on record?
# output 1.12

# input For the compound CN1CCN(C2CCC(n3ncc4c(N5CC6CCC(C5)O6)nc(-c5ccc(NC(=O)NC6CC6)cc5)nc43)CC2)CC1 (stereo not shown) , what IC50 is on record?
# output 5.34

----------
- measured.on: Human mTOR (FLAG-TOR) (Homo sapiens)
- Construct: FLAG
- test.summary: Human mTOR kinase assay with purified enzyme, DELFIA format
- Type: biochemical
- measurement.setup: purified human mTOR enzyme, DELFIA format
pIC50: −log10 of the molar value.
We use 9 as the dividing line for pIC50: on or above the line is true (1), below is false (0).

# input Hi, just wondering whether O=C(Nc1ccc(-c2nc(N3C[C@@H]4C[C@H]3CO4)c3cnn(CC(F)(F)F)c3n2)cc1)Nc1ccc(N2CCOCC2)nc1 [Example 299] shows pIC50 of 9 or higher.
# output false (0)

# input Hi, just wondering whether CC(=O)N1CC2CN(c3nc(-c4ccc(NC(=O)Nc5ccncc5)cc4)nc4c3cnn4CC(F)(F)F)CC(C1)O2 [Example 339] shows pIC50 of 9 or higher.
# output false (0)

# input Hi, just wondering whether O=C(Nc1ccc(-c2nc(N3CC4C[C@@H](O)C(C3)O4)c3cnn(CC(F)(F)F)c3n2)cc1)OCCO (stereo partly shown) [Example 379] shows pIC50 of 9 or higher.
# output false (0)

# input Hi, just wondering whether c1cc2cc(-c3nc(N4CC5CCC(C4)O5)c4cnn(C5CCC6(CC5)OCCO6)c4n3)ccc2[nH]1 [Example 388] shows pIC50 of 9 or higher.
# output false (0)

# input Hi, just wondering whether COC1CCC(n2ncc3c(N4CC5CCC(C4)O5)nc(-c4ccc(NC(=O)Nc5cccnc5)cc4)nc32)CC1 (stereo not shown) [Example 384] shows pIC50 of 9 or higher.
# output true (1)

----------
Record form. Attribute: IC50. Fill in for each entry.
- measured.on: PI3K (Homo sapiens)
- Construct: PI3 Kinase γ IC50; other: PI3 Kinase γ; other: PI3 Kinase γ isoform, fluorescence polarization
- test.summary: Fluorescence polarization assay for PI3K
- Assay type: biochemical
- measurement.setup: PI3 Kinase γ; read-out: PI3 Kinase γ IC50

# input For the compound CCNC(=O)Nc1ccc(-c2nc(N3CC4CCC(C3)O4)c3cnn(CC(F)(F)F)c3n2)cc1 [Example 3] , what IC50 is on record?
# output > 10 µM

# input For the compound O=C(Nc1ccc(-c2nc(N3CC4CCC(C3)O4)c3cnn(CCF)c3n2)cc1)OCCO [Example 245] , what IC50 is on record?
# output > 10 µM

# input For the compound CNC(=O)Nc1ccc(-c2nc(N3CC4CCC(C3)O4)c3cnn(C4CCC(OC)(OC)CC4)c3n2)cc1 [Example 150] , what IC50 is on record?
# output > 10 µM

# input For the compound COC(=O)Nc1ccc(-c2nc(N3CC4CCC(C3)O4)c3cnn(CC(F)(F)F)c3n2)cc1 [Example 2] , what IC50 is on record?
# output > 10 µM

# input For the compound CCn1ncc2c(N3CC4CCC(C3)O4)nc(-c3ccc(NC(=O)OCC(C)O)cc3)nc21 (stereo not shown) [Example 191] , what IC50 is on record?
# output > 10 µM

# input For the compound O=C(Nc1ccc(-c2nc(N3C4CCC3COC4)c3cnn(CC(F)(F)F)c3n2)cc1)Nc1ccc(N2CCOCC2)cc1 [Example 273] , what IC50 is on record?
# output > 10 µM

# input For the compound CCn1ncc2c(N3CC4CCC(C3)O4)nc(-c3ccc(NC(=O)NC4CC4)cc3)nc21 [Example 43] , what IC50 is on record?
# output > 10 µM

# input For the compound CCn1ncc2c(N3CC4CCC(C3)O4)nc(-c3ccc(NC(=O)NCCOCCN)cc3)nc21 [Example 225] , what IC50 is on record?
# output > 10 µM

# input For the compound O=C(Nc1ccc(-c2nc(N3CC4CCC(C3)O4)c3cnn(C4CCC(O)CC4)c3n2)cc1)OCCO (stereo not shown) [Example 212] , what IC50 is on record?
# output > 10 µM

# input For the compound CCNC(=O)Nc1ccc(-c2nc(N3CC4CCC(C3)O4)c3cnn(CCF)c3n2)cc1 [Example 247] , what IC50 is on record?
# output > 10 µM

----------
- measured.on: PI3K (Homo sapiens, UniProt P48736)
- Construct: PI3 Kinase γ IC50; other: PI3 Kinase γ; other: PI3 Kinase γ isoform, fluorescence polarization
- test.summary: Fluorescence polarization assay for PI3K
- Format: biochemical
- measurement.setup: PI3 Kinase γ isoform, fluorescence polarization; read-out: PI3 Kinase γ IC50
Record form. Attribute: pIC50. Fill in for each entry.
Notebook: values listed as pIC50 are -log10 of the concentration (mol/L).

# input For the compound `Oc1cccc(-c2nc(N3C4CCC3COC4)c3cnn(-c4ccccc4)c3n2)c1` , what pIC50 is on record?
# output 5.71

# input For the compound `O=C(Nc1ccc(-c2nc(N3C4CCC3COC4)c3cnn(CC(F)(F)F)c3n2)cc1)Nc1ccc(N2CCNCC2)cc1` , what pIC50 is on record?
# output 5.64

----------
Record form. Attribute: IC50. Fill in for each entry.
- measured.on: PI3K (Homo sapiens)
- Construct: PI3 Kinase γ IC50; other: PI3 Kinase γ; other: PI3 Kinase γ isoform, fluorescence polarization
- test.summary: Fluorescence polarization assay for PI3K
- Type: biochemical
- measurement.setup: PI3 Kinase γ; read-out: PI3 Kinase γ IC50

# input For the compound CNC(=O)Nc1ccc(-c2nc(N3CC4CCC(C3)O4)c3cnn(CCF)c3n2)cc1 [Example 241] , what IC50 is on record?
# output > 10 µM

# input For the compound CNC(=O)Nc1ccc(-c2nc(N3CC4CCC(C3)O4)c3cnn(C4CCC5(CC4)OCC(C)(C)CO5)c3n2)cc1 [Example 152] , what IC50 is on record?
# output > 10 µM

# input For the compound CN(C)CCn1ncc2c(N3CC4CCC(C3)O4)nc(-c3ccc(NC(=O)OCCO)cc3)nc21 [Example 158] , what IC50 is on record?
# output > 10 µM
